// provenance: PubChem BioAssay (NCI)

tested on: 786-0 renal; assay: NCI tumour cell line growth inhibition, 48 h
Where a SMILES comes first, the peptide text is derived from it. [ ]: non-standard residue; d: D form. β3hI = CC[CH](C)[CH](N)CC(=O)O
RESULT TYPE: TGI

What measured TGI goes with CC(C)(C)C(=O)C1CC(=O)c2ccccc2C1=O (stereo not drawn) ?
> 100 µM

Dear colleague, could you please provide TGI for the compounds listed below?
1. CS(=O)(=O)Nc1ccc(Nc2c3ccccc3nc3ccccc23)cc1
2. O=C(NCCO)Nc1c(C(F)(F)F)cc(-c2ccccc2)[nH]c1=O
3. CCC(C)C(CC(=O)N1CCCC1C(=O)NC(C(=O)NC(C(=O)NCC(=O)NC(CC(N)=O)C(=O)NC(C(=O)NC(C(=O)NC(CCCCN)C(N)=O)C(C)CC)C(C)CC)C(C)C)C(C)CC)NC(=O)C(N)C(C)CC (stereo not drawn) (H-I[β3hI]PIVGNIIK-NH2; configuration not given here)
4. O=C1OC(O)C(Oc2ccc(Cl)cc2)=C1Cl (stereo not drawn)
5. N/N=C1/CCCc2nonc21
6. Clc1c(Cl)c2c(Cl)c(Cl)c1C[P+](c1ccccc1)(c1ccccc1)CC[P+](c1ccccc1)(c1ccccc1)Cc1c(Cl)c(Cl)c(c(Cl)c1Cl)C[P+](c1ccccc1)(c1ccccc1)CC[P+](c1ccccc1)(c1ccccc1)C2
7. CN(C)c1nc(NN)c2c(-c3ccccc3)c(-c3ccccc3)oc2n1

1. 17.8 µM
2. > 100 µM
3. > 50 µM
4. > 100 µM
5. > 100 µM
6. 19.5 µM
7. > 100 µM
